- system: T1, recombinant hAng-2 (C-His, R&D Systems) (human, UniProt O15123 19-496)
- T1 construct: Bought protein; also called human Ang-2 protein; C-terminal histidine-tagged human Ang2 (R&D Systems); not shown: C-terminal His tag
- T1 sequence: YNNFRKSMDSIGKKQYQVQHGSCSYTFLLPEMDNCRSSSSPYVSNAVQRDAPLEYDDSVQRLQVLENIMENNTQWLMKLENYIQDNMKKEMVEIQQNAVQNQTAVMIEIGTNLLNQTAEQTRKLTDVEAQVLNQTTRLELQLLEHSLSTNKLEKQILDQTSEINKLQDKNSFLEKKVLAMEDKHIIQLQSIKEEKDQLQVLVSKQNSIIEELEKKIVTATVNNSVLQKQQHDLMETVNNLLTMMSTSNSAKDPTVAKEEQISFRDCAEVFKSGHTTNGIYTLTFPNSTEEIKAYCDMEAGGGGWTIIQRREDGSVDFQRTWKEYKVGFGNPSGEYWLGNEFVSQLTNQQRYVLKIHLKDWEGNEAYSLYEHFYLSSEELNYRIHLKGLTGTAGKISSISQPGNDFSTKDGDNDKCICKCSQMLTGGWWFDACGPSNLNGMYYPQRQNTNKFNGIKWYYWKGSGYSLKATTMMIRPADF
- experiment: SPR, BIAcore T100; hAng2 (C-His) captured by anti-His antibody on CM5, antibody as analyte
recorded endpoint: kon (M⁻¹ s⁻¹)
# value in M⁻¹ s⁻¹; strip the unit string

Observe how each entry below is paired with its result.
[[record]]
binder = "h10D6-OPTI-68 (antibody, human IgG1, V domains shown) VH: EVQLVESGGGLVQPGGSLRLSCAASGYSITSDYAWNWVRQAPGKGLEWMGKISYSGKTDYNPSLKSRSTISRDTSKNTFYLQMNSLRAEDTAVYYCARGNFEGAMDYWGQGTLVTVSS VL: DIQMTQSPSSLSASVGDRVTITCKASQFVSTDVHWYQQKPGKAPKLLIYYASNRYPGVPSRFSGSGSGTDFTLTISSLQPEDFATYYCQQDYSSPWTFGQGTKLEIK"
recorded_result = 536000

[[record]]
binder = "10D6-HU1 (antibody, V domains shown, Humanized antibody; also called humanized antibody 10D6-HU1) VH: QVQLQESGPGLVKPSETLSLTCAVSGYSISSDYAWNWIRQPPGKGLEWIGYINYSGNTDYNPSLKSRVTISVDTSKNQFSLKLSSVTAADTAVYYCARGNFEGAMDYWGQGTLVTVSS VL: DIQMTQSPSSLSASVGDRVTITCKASQSVSNDVAWYQQKPGKAPKLLIYYASNRYPGVPSRFSGSGSGTDFTLTISSLQPEDFATYYCQQDYSSPWTFGQGTKLEIK"
recorded_result = 30800


Attention now turns to another entry.
Please look up its kon: SAIT-ANG2-AB-m10D6 (antibody, V domains shown, Mouse monoclonal antibody purified from a hybridoma (KCLRF-BP-00295); it is not applied here; also called mouse antibody 10D6; 10D6 antibody) VH: DVQLQESGPDLVKPSQSLSLTCTVTGYSITSDYAWNWIRQFPGNKLEWMGYINYSGNTDYNPSLKSRSSITRDTSKNQFFLQLNSVTTGDTATYYCARGNFEGAMDYWGQGTSVTVSS VL: SIVMTQTPKFLLVSAGDRVTITCKASQSVSNDVAWYQQKPGQSPKLLIYYASNRYPGVPDRFTGSGYGTDFTFTISTVQAEDLAVYFCQQDYSSPWTFGGGTKLEIK 24100
